Reported growth values for the following compounds.
System: TK-10 renal
Test: NCI-60 one-dose screen, 48 h (100 = growth as untreated, 0 = no growth, -100 = all killed)
Details: 10 µM unless noted
This is part of a sample that, as a whole, favours compounds with a hit. Of some 83,000 tested, about 20% had one in any assay.
API: value field is a number in %; no unit string.

Example entries and their recorded answers appear below.
* Cc1cc(=O)oc2cc(OC(=O)CN3CCN(C)CC3)ccc12 | 109
* COc1c(N2CC3CCCN(C(C)=O)C3C2)c(F)cc2c(=O)c(C(=O)N[C@H]3C(O)[C@@H](O)C(CO)O[C@H]3O)cn(C3CC3)c12 (stereo not given in full) | 105

Challenge: Suppose we examine the compound `O=C(N/N=C/[C@@H](O)[C@H](O)[C@H](O)CO)c1ccc(NC(=O)c2cccnc2)cc1` ; what growth value has been reported?
Response given: 106

Challenge: Suppose we examine the compound C=CCc1cc(C)ccc1NC(C(=O)NCC(=O)OC)c1ccccc1 (stereo not given) ; what growth value has been reported?
Response given: 106

Challenge: Suppose we examine the compound `COc1cc(Nc2cn[nH]c2-c2ccc(Cl)cc2)cc(OC)c1OC` ; what growth value has been reported?
Response given: 67
